# System: COLO 205 colon
# Procedure Details: NCI tumour cell line growth inhibition, 48 h
Endpoint: TGI

{"Compound": "O=C1NC(=O)/C(=C/c2ccc(S(=O)(=O)N/N=C/c3ccccc3)cc2)N1", "Obs Value": "> 100 µM"}
{"Compound": "O=[P+](O)c1cccs1", "Obs Value": "> 100 µM"}
{"Compound": "Clc1ccc(/C=C/c2nc(-c3ccc(Cl)cc3)cn3c2nc2ccccc23)cc1", "Obs Value": "> 100 µM"}
{"Compound": "CC1=C(S(=O)c2ccc(C)cc2)CCC2(CCCCO2)O1 (stereo unspecified)", "Obs Value": "> 100 µM"}
{"Compound": "Cc1cc(O)c2c(c1)C(=O)C=C(Br)C2=O", "Obs Value": "19.2 µM"}
{"Compound": "O=NN(CCCl)C(=O)Nc1ccc(Cl)c(Cl)c1", "Obs Value": "> 100 µM"}

* * *

# System: 786-0 renal
# Procedure Details: NCI tumour cell line growth inhibition, 48 h

{"Molecule": "NC(Cn1ccc(=O)c(O)c1)C(=O)O (configuration not stated)", "TGI": "> 100 µM"}
{"Molecule": "Oc1ccc(NCc2cc(O)ccc2O)cc1", "TGI": "31.9 µM"}
{"Molecule": "c1ccc2c(c1)ncn2CCn1ccnc1", "TGI": "> 100 µM"}
{"Molecule": "CCOc1ccc(/C=N\\N2C(=O)c3ccccc3C2=O)cc1", "TGI": "> 100 µM"}
{"Molecule": "O=C1CC(NC2CC(=O)c3c(Br)sc(Br)c32)c2c(Br)sc(Br)c21 (configuration not stated)", "TGI": "2.9 µM"}
{"Molecule": "O=C(O)/C(=C/c1ccccc1[N+](=O)[O-])c1cccs1", "TGI": "> 100 µM"}
{"Molecule": "C/C(=C\\CCc1ccsc1)CC/C=C(\\C)CCCN1CCN(CCO)CC1", "TGI": "5.35 µM"}
{"Molecule": "COc1ccc(/C=N/NS(=O)(=O)c2ccc(/C=C3\\NC(=O)N(C)C3=O)cc2)cc1", "TGI": "> 100 µM"}
{"Molecule": "Cc1ccc(O)c(-c2cc(-c3ccccc3)nc(/N=C\\c3ccccc3)n2)c1", "TGI": "> 100 µM"}
{"Molecule": "O=C(OCC(Cl)(Cl)Cl)N1CC[C@@H](C2CCCCC2)C1", "TGI": "43 µM"}
{"Molecule": "COC(=N)c1ncn(Cc2ccccc2)c1N", "TGI": "> 100 µM"}
{"Molecule": "CCOC(=O)C/C(N)=C(\\C#N)C(=O)OCC", "TGI": "> 100 µM"}

* * *

# Test system: RXF 393 renal
# Procedure Details: NCI tumour cell line growth inhibition, 48 h
Catalogue of GI50 values

{"Compound": "Oc1[nH]c2ccc(Cl)cc2c1/C=c1/ccc2c(c1)N=C(c1ccc(C(F)(F)F)cc1)N=2", "GI50": "1.88 µM"}
{"Compound": "O=C1c2cccc3cccc(c23)C(=O)N1CC#Cc1ccc2c3c(cccc13)C(=O)N(CCN1CCNCC1)C2=O", "GI50": "2.7 µM"}
{"Compound": "COc1ccc(C2=NNC(c3cc(Cc4ccc(O)c(C5CC(c6ccc(OC)cc6)=NN5)c4)ccc3O)C2)cc1 (stereo unspecified)", "GI50": "4.18 µM"}
{"Compound": "COc1ccccc1N(C(C)=O)C1=C(Cl)C(=O)c2ccccc2C1=O", "GI50": "1.12 µM"}
{"Compound": "NS(=O)(=O)c1cccc(-c2cc3ccncc3cc2OCc2ccccc2)c1", "GI50": "4.96 µM"}
{"Compound": "Cc1cc(NS(=O)(=O)c2ccc(NC(=O)COc3ccc(-c4cc5ccccc5[nH]4)cc3)cc2)no1", "GI50": "1.24 µM"}
{"Compound": "Cc1cc(Br)c2nsnc2c1[N+](=O)[O-]", "GI50": "6.66 µM"}
{"Compound": "Nc1cccc2c1CN(C1CCC(=O)NC1=O)C2=O (stereo unspecified)", "GI50": "> 100 µM"}
{"Compound": "Nc1nccc2c1ncn2C1C=C(CO)C(O)C1O (stereo unspecified)", "GI50": "851 µM"}
{"Compound": "O=S1CCN(Cc2ccc(-c3ccc4ncnc(Nc5ccc(OCc6ccccc6)c(F)c5)c4c3)o2)CC1", "GI50": "4.45 µM"}
{"Compound": "Cc1ccc(-n2nnc3c(sc4ccccc43)c2=O)cc1", "GI50": "16.8 µM"}

* * *

# Tested on: A549 NSCLC
# Procedure Details: NCI tumour cell line growth inhibition, 48 h; in the data active = GI50 below about 0.43 µM; inactive = the rest
*1 amine or outer side, *2 acyl side, *3 side chain or, on linkers, in order; H or OH if unused. Where a SMILES comes first, the peptide text is derived from it. Bridges are numbered along the chain shown (N, C = ends). Roman numbers before positions name the chains, in order. X23 = CCCCCCCCCCCCCCC(=O)NC(CCCCN[*:2])C(=O)CN1CCCC1C(=O)[*:1]
Outcomes: Y (active), N (inactive)

{"Molecule": "NC(Cc1ccc(O)cc1)C(=O)N/N=C/c1ccc(N(CCCl)CCCl)cc1 (configuration not stated)", "Assigned Class": "N"}
{"Molecule": "O=C1c2cccc3cccc(c23)C(=O)N1CC#Cc1ccc2c3c(cccc13)C(=O)N(CCN1CCNCC1)C2=O", "Assigned Class": "N"}
{"Molecule": "N#Cc1ccc(N2Cc3cc(Cl)ccc3OC3=C2C(=O)N(Cc2ccc(F)cc2)C3=O)cc1", "Assigned Class": "N"}
{"Molecule": "O=C1/C(=C\\c2ccc([N+](=O)[O-])cc2)CS(=O)(=O)C/C1=C/c1ccc([N+](=O)[O-])cc1", "Assigned Class": "Y"}
{"Molecule": "Nc1cccc2c1CN(C1CCC(=O)NC1=O)C2=O (configuration not stated)", "Assigned Class": "N"}
{"Molecule": "COc1ccc(C2c3cc4c(c(OC)c3CC3OCC(=O)C32)OCO4)cc1OC (configuration not stated)", "Assigned Class": "Y"}
{"Molecule": "COc1ccccc1N(C(C)=O)C1=C(Cl)C(=O)c2ccccc2C1=O", "Assigned Class": "N"}
{"Molecule": "CCc1ccc(Oc2nccc(-c3c(-c4ccc(F)cc4)ncn3C3CCNCC3)n2)cc1", "Assigned Class": "N"}
{"Molecule": "COc1cc(-c2nccc3[nH]c(-c4cccc5[nH]ccc45)nc23)cc(OC)c1OC", "Assigned Class": "Y"}
{"Molecule": "CCN1CCN(CC(=O)Nc2nc3ccc(NCc4ccc(C)cc4)cc3s2)CC1", "Assigned Class": "N"}
{"Molecule": "O=C1c2ccccc2-c2c1c1c(O)cccc1n2CCCc1ccccc1", "Assigned Class": "N"}
{"Molecule": "Cc1cc(Br)c2nsnc2c1[N+](=O)[O-]", "Assigned Class": "N"}
{"Molecule": "CCCCCCCCCCCCCCC(=O)NC(CCCCNC(=O)C1CCCN1C(=O)C(CCCCN)NC(=O)C(CCCCN)NC(=O)C(CCCCN)NC(=O)C(CCCNC(=N)N)NC(=O)C(CCCCN)NC(=O)C(N)C(C)C)C(=O)CN1CCCC1C(=O)NCC(=O)NC(Cc1ccccc1)C(=O)N1CCCC1C(=O)NC(CO)C(=O)NC(Cc1ccc(O)cc1)C(=O)NC(CCCCN)C(=O)NC(CC(C)C)C(=O)NC(CCCNC(=N)N)C(=O)N1CCCC1C(=O)NCC(N)=O (configuration not stated) (I: GFPSYKLRPG-NH2 / II: H-VKRKKKP; linker I:N-II:C via X23; configuration not given here)", "Assigned Class": "N"}
{"Molecule": "Cc1ccn2c(-c3csc(Nc4cccc(O)c4)n3)c(C)nc2c1", "Assigned Class": "N"}
{"Molecule": "CCCCCCCCCCCCNC(=O)[C@H]1CSC(c2cc(Br)cs2)N1 (some centres not stated)", "Assigned Class": "N"}
{"Molecule": "O=C(N/N=C/c1ccncc1)c1ccc(C(F)(F)F)nc1Nc1cccc(C(F)(F)F)c1", "Assigned Class": "N"}
{"Molecule": "CCOC(=O)c1c(C(F)(F)F)n([O-])c2ccc(Cl)cc2[n+]1=O", "Assigned Class": "N"}

* * *

# System: HOP-92 NSCLC
# Procedure Details: NCI tumour cell line growth inhibition, 48 h

{"Molecule": "Cn1c2c(c3ccccc31)CC(=O)N1CCCC(C1)CC21OCCO1 (stereo unspecified)", "TGI": "> 100 µM"}
{"Molecule": "Nc1nccc2c1ncn2C1C=C(CO)C(O)C1O (stereo unspecified)", "TGI": "> 1000 µM"}
{"Molecule": "Clc1ccc(/C=C/c2nc(-c3ccc(Cl)cc3)cn3c2nc2ccccc23)cc1", "TGI": "> 100 µM"}
{"Molecule": "O=[N+]([O-])c1ccc(N/N=C/c2ccccc2O)nc1", "TGI": "> 100 µM"}
{"Molecule": "O=S(=O)(CC(O)C(Cl)(Cl)Cl)NNc1ccccc1 (stereo unspecified)", "TGI": "> 100 µM"}
{"Molecule": "CN(C)CCCNC(=O)c1cccc2nc3ccccc3nc12", "TGI": "> 78.4 µM"}
